Listed compounds paired with reported log10 IC50
- measured-on: UniProtKB P17752
- assay-name: Biochemical in vitro assay using fluorescence readout (TPH1 inhibition)
- condition-description: human TPH1, fluorescence readout
Short version: log10 scale, IC50, nM.

compound	log10 IC50
N#Cc1ccc(OCC(=O)N2CCc3nc4sccn4c3C2c2ncc(C3CC3)cc2F)c(Cl)n1 (centres unmarked)	1.23

Now let's try a different one.
Exercise: Quick check: log10 IC50 of Cc1nn2c3c(nc2s1)CCN(C(=O)COc1ccc(N2CCCC2)nc1C)C3c1ccc(C2CC2)cc1F (centres unmarked) ?
Solution: 1.11

* * *

- measured-on: human TPH1 (Homo sapiens (Human), UniProt P17752)
- Sequence (P17752 whole entry): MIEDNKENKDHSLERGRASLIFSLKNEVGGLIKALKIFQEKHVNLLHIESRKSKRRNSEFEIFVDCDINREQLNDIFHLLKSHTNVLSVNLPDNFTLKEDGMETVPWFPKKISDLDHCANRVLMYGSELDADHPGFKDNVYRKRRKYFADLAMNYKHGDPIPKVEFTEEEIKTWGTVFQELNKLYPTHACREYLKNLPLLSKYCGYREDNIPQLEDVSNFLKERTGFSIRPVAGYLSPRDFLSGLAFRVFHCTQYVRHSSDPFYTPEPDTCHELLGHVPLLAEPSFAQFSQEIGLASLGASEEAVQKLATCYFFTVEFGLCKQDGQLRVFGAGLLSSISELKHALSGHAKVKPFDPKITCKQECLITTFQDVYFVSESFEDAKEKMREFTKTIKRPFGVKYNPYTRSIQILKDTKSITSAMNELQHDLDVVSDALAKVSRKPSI
- assay-name: Biochemical in vitro assay using fluorescence readout (TPH1 inhibition)
- condition-description: full length human TPH1, 40 μM L-tryptophan, 15° C., 60 minutes, fluorescence at 540 nm; mean if determined several times
reported-endpoint: pIC50
For clarity, pIC50 is expressed as the negative log10 of concentration in mol/L.

Answered examples (5):
compound	pIC50
Cc1nn2c3c(nc2s1)CCN(C(=O)COc1ccc(N2CCNCC2=O)nc1Cl)C3c1ccc(Cl)cc1F (stereo not shown)	8.22
CNC(=O)c1csc(C2c3c(nc4sc(C)nn34)CCN2C(=O)COc2ccc(C(F)(F)F)cc2Cl)n1 (stereo not shown)	6.51
Cc1nn2c3c(nc2s1)CCN(C(=O)COc1ccc(C(F)(F)F)nc1Cl)C3c1cnc(N(C)C)s1 (stereo not shown)	6.87
CNc1ccc(OCC(=O)N2CCc3nc4sc(C)nn4c3C2c2ccc(Cl)cc2F)c(Cl)n1 (stereo not shown)	8.22
Cc1nn2c3c(nc2s1)CCN(C(=O)COc1ccc(N2CC(F)(F)C2)cc1Cl)C3c1ccc(Cl)cc1F (stereo not shown)	8.22

Exercise: Quick check: pIC50 of Cc1nn2c3c(nc2s1)CCN(C(=O)COc1ccc(N(C)C)nc1Cl)C3c1cnc(N(C)C)s1 (stereo not shown) ?
Solution: 7.60

Exercise: Quick check: pIC50 of Cc1nn2c3c(nc2s1)CCN(C(=O)COc1ccc(S(N)(=O)=O)nc1Cl)C3c1ccc(Cl)cc1F (stereo not shown) ?
Solution: 7.24
